# system: Sphingosine kinase 2 (Homo sapiens) (UniProt Q9NRA0);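 note: values reported as mean percent inhibition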
# Sequence (Q9NRA0 whole entry): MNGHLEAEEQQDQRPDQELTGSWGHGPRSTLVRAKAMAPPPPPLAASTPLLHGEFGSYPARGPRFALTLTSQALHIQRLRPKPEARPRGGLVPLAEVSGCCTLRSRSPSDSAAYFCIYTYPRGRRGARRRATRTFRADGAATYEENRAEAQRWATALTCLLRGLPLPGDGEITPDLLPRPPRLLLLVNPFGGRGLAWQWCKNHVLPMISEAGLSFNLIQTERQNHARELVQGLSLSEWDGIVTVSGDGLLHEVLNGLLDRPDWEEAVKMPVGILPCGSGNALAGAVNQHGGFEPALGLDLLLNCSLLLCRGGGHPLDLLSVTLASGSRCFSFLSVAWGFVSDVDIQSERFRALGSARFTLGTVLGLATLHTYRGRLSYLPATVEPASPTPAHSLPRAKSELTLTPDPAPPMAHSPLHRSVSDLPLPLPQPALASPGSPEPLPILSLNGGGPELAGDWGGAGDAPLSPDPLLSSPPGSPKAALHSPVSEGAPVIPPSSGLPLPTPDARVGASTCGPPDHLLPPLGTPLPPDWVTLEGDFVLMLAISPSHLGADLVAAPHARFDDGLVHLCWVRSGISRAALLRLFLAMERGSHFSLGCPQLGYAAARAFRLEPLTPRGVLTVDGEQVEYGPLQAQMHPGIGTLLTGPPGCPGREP
# stated conditions: at 0.1 µM
measured metric: inhibition (%)
# number only, unit % dropped from output

Worked cases, inhibition given:
[[record]]
smiles_text = "O=C(Nc1ccc(Oc2ccc3[nH]c(NC(=O)c4ccccc4)nc3c2)cc1)Nc1cc(C(F)(F)F)ccc1F"
result = 17.6

[[record]]
smiles_text = "c1ccc(-c2n[nH]cc2-c2ccnc(-c3ccc(OCCN4CCOCC4)cc3)c2)nc1"
result = 0.79

[[record]]
smiles_text = "O=C(NCC1CC1)c1ccc(-c2cccc(C(=O)NC3CC3)c2)cc1"
result = 0.02


Noted for `CN1CCN(CCCNc2nc3ccc(Oc4ccc(NC(=O)Nc5cc(C(F)(F)F)ccc5F)cc4)cc3[nH]2)CC1` : its inhibition reads -0.2

---

# system: Rho-associated protein kinase 1 (Homo sapiens) (UniProt Q13464);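 note: reported values are mean percent inhibition of ROCK1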
# Sequence (Q13464 2-1354 limits assumed): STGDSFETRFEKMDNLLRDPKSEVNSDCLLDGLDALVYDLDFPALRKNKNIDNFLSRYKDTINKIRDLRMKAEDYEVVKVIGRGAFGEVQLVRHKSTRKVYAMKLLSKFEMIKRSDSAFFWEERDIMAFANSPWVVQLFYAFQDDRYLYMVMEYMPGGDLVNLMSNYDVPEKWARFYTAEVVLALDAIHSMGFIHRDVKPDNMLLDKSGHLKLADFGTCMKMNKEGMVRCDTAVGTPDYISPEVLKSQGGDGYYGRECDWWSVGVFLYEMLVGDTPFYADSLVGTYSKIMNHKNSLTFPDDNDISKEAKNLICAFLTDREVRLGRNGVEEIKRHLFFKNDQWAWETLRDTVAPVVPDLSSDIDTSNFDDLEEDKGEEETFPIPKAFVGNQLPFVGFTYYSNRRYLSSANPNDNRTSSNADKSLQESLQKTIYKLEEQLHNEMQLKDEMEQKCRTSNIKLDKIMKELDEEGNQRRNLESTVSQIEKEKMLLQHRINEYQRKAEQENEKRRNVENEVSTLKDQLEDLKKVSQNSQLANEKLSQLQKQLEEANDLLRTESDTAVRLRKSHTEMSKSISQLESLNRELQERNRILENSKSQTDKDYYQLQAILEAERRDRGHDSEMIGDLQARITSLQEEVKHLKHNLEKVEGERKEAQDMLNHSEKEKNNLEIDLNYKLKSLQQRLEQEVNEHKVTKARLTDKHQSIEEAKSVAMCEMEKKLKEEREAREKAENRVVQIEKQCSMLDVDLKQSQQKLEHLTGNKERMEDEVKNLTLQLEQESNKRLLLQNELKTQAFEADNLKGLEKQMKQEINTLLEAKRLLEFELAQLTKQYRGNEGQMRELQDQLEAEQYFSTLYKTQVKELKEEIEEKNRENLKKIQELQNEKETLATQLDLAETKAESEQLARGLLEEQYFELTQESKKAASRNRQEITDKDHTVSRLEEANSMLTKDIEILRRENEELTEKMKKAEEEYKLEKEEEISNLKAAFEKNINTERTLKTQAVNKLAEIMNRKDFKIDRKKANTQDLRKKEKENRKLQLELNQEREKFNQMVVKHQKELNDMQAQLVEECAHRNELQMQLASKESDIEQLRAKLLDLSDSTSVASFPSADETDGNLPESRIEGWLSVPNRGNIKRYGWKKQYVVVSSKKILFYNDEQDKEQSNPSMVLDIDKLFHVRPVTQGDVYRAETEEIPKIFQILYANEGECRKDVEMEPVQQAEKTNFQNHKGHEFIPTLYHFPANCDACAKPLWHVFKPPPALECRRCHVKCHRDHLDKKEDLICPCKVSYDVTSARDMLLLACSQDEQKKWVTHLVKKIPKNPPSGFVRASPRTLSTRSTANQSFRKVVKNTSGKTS
# stated conditions: at 1 µM
Measured inhibition accompanies every entry in the list below.
Form entry: value (%) — number only.

// below: answered compounds
[[record]]
smiles_text = "NC(=O)c1cc(-c2ccc(F)cc2)cc(-c2ccncc2)c1N"
scale_unit = "%"
result = 1.76

[[record]]
smiles_text = "CN(c1ccc(NC(=O)Nc2c(Cl)cccc2Cl)cc1)c1ccnc(Nc2cccc(CS(C)(=O)=O)c2)n1"
scale_unit = "%"
result = 2.01

[[record]]
smiles_text = "C#Cc1cccc(Nc2ncnc3ccc(OCCCCNCCS(C)(=O)=O)cc23)c1"
scale_unit = "%"
result = 2.52

[[record]]
smiles_text = "CN(C)CCCNc1nccc(-c2c(-c3ccc(F)cc3)nn3cc(C(F)(F)F)ccc23)n1"
scale_unit = "%"
result = 1.8


Looking up `NS(=O)(=O)c1ccc(N/N=C2\C(=O)Nc3ccc(C(=O)NCCCn4ccnc4)cc32)cc1` , I found its inhibition recorded as 8.77

The compound listed as `Fc1ccc(-c2nc3n(c2-c2ccncc2)CCS3)cc1` has a reported inhibition of 4.54

Form: compound = `COc1cc(Nc2ncc3c(C)nc(-c4cccc(Oc5ccccc5)c4)n3n2)cc(OC)c1OC` ; inhibition = 1.17

The recorded inhibition for `Cc1ccc(NC(=O)c2ccoc2)cc1-c1ccc(C(=O)NCC2CC2)cc1` is -0.4

Entry `NCc1ccc(-n2c(-c3nonc3N)nc3cnccc32)cc1` ; inhibition = 90.5

Entry `CS(=O)(=O)CCNCc1ccc(-c2ccc3ncnc(Nc4ccc(OCc5ccccc5)c(Br)c4)c3c2)o1` , inhibition reported as 2.16

Record `COc1ccc2cc(-c3c(-c4ccncc4)nc(-c4ccc(S(C)(=O)=O)cc4C)n3C)ccc2c1` , field inhibition: 10.6

According to the records, this compound `CCc1nccc2c1nc(-c1nonc1N)n2CC` displays inhibition of 11.5

What the record says about `COc1cc(C)c(N(C)C(=O)CN(C)C)cc1Nc1nc(Nc2cccc(F)c2C(N)=O)c2cc[nH]c2n1` : inhibition is 1.48

Item: `FC(F)(F)c1cccc(Nc2nccc(-c3cnn4nc(-c5ccccc5)ccc34)n2)c1` | inhibition: 0.48

Sure, the documented inhibition for `CCS(=O)(=O)c1ccc(OC)c(Nc2ncc(-c3cccc(-c4ccccc4F)c3)o2)c1` is 1.4

Just so you know, measured inhibition for `COc1cc(N2CCN(C(C)C)CC2)ccc1Nc1nc(Nc2ccc(F)cc2C(=O)NC[C@@H](O)CO)c2cc[nH]c2n1` came out at 2.04

Form: compound = `COc1cccc(/C=N/Nc2ncnc3c2cnn3-c2cccc(OC)c2)c1` ; inhibition = 3.6
